target: recombinant IRAK-4 kinase (Homo sapiens, UniProt Q9NWZ3); construct: purchased Millipore, USA; test: IRAK-4 Biochemical Assay (TR-FRET, percent inhibition); conditions: read-out: % inhibition of IRAK-4 @0.1 μM, compound at 0.1 μM; TR-FRET, 20 μM ATP, 100 nM Biotin Histone H3
Sequence (Q9NWZ3 whole entry): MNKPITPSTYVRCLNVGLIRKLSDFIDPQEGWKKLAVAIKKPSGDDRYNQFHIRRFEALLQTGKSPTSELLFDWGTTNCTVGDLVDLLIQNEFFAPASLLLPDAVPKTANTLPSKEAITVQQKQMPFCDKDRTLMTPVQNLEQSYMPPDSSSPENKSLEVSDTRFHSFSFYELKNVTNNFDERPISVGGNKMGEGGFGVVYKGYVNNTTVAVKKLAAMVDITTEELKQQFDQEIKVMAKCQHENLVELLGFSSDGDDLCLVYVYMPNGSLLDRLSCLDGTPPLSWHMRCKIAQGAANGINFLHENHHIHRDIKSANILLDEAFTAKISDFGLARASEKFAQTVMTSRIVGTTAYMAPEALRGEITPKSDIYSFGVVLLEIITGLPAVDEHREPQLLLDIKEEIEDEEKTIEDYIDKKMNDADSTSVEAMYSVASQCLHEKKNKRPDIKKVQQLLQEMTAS
Structures can show the parent of a compound that is named as a salt.
READOUT_NAME: inhibition at 0.1 µM (%)

{"COMPOUND": "Cn1cc(-c2nc(C(=O)Nc3cc4sc(N5CCOCC5)nc4nc3N3CCCCC3)co2)ccc1=O [Example 3]", "SCALE_UNIT": "%", "EXPERIMENTAL_VALUE": 97}
{"COMPOUND": "O=C(Nc1cc2sc(N3CCOCC3)nc2nc1N1CCCCC1)c1cccc(N2C3CCC2CC(O)C3)n1 (centres unmarked) [Example 81]", "SCALE_UNIT": "%", "EXPERIMENTAL_VALUE": 88}
{"COMPOUND": "NCC(=O)N[C@H]1CCN(c2cccc(C(=O)Nc3cc4sc(N5CCOCC5)nc4nc3N3CCCCC3)n2)C1 [Example 27]", "SCALE_UNIT": "%", "EXPERIMENTAL_VALUE": 95}
{"COMPOUND": "Cc1ccc(C(=O)Nc2cc3sc(N4CCOCC4)nc3nc2N2CCCCC2)nc1-c1ccc(N)nc1 [Example 85]", "SCALE_UNIT": "%", "EXPERIMENTAL_VALUE": 101}
{"COMPOUND": "Nc1cc(-c2nc(C(=O)Nc3cc4sc(N5CCOCC5)nc4nc3N3CCCCC3)co2)c(Cl)cn1 [Example 12]", "SCALE_UNIT": "%", "EXPERIMENTAL_VALUE": 98}
{"COMPOUND": "O=C(Nc1cc2sc(N3CCOCC3)nc2nc1N1CCCCC1)c1ccnc(N2CCC(O)C2)n1 (centres unmarked) [Example 53]", "SCALE_UNIT": "%", "EXPERIMENTAL_VALUE": 90}
{"COMPOUND": "O=C(Nc1cc2sc(N3CCOCC3)nc2nc1N1CC[C@@H](O)C1)c1cnn2cccnc12 [Example 103, hydrochloride]", "SCALE_UNIT": "%", "EXPERIMENTAL_VALUE": 92}
{"COMPOUND": "Cc1cc(-c2nc(C(=O)Nc3cc4sc(N5CCOCC5)nc4nc3N3CCC(O)(CO)C3)co2)ccn1 (centres unmarked) [Example 9, hydrochloride]", "SCALE_UNIT": "%", "EXPERIMENTAL_VALUE": 101}
{"COMPOUND": "Cc1cc(-c2ncc(C(=O)Nc3cc4sc(N5CCOCC5)nc4nc3N3CCC(O)(CO)CC3)o2)ccn1 [Example 4, hydrochloride]", "SCALE_UNIT": "%", "EXPERIMENTAL_VALUE": 99}
{"COMPOUND": "Nc1cccc(-c2nc(C(=O)Nc3cc4sc(N5CCOCC5)nc4nc3N3CCCCC3)co2)n1 [Example 11, hydrochloride]", "SCALE_UNIT": "%", "EXPERIMENTAL_VALUE": 99}
{"COMPOUND": "O=C(Nc1cc2sc(N3CCOCC3)nc2nc1N1CCCCC1)c1cccc(N2CCC(O)CC2)n1 [Example 56]", "SCALE_UNIT": "%", "EXPERIMENTAL_VALUE": 95}
{"COMPOUND": "O=C(Nc1cc2sc(N3CCOCC3)nc2nc1C1CC1)c1cnn2cccnc12 [Example 105]", "SCALE_UNIT": "%", "EXPERIMENTAL_VALUE": 96}
{"COMPOUND": "Cc1cc(-c2nc(C(=O)Nc3cc4oc(N5CCOCC5)nc4nc3N3CCCC(O)(CO)C3)co2)ccn1 (centres unmarked) [Example 15, hydrochloride]", "SCALE_UNIT": "%", "EXPERIMENTAL_VALUE": 96}
{"COMPOUND": "O=C(Nc1cc2sc(N3CCOCC3)nc2nc1N1CCCCC1)c1cccc(N2CCO[C@@H](CO)C2)n1 [Example 33]", "SCALE_UNIT": "%", "EXPERIMENTAL_VALUE": 95}
{"COMPOUND": "Nc1ccc(-c2cccc(C(=O)Nc3cc4sc(N5CCOCC5)nc4nc3N3CCCCC3)n2)cn1 [Example 75]", "SCALE_UNIT": "%", "EXPERIMENTAL_VALUE": 98}
{"COMPOUND": "COC1CCN(c2cccc(C(=O)Nc3cc4sc(N5CCOCC5)nc4nc3N3CCCCC3)n2)CC1 [Example 31]", "SCALE_UNIT": "%", "EXPERIMENTAL_VALUE": 90}
{"COMPOUND": "O=C(Nc1cc2sc(N3CCOCC3)nc2nc1N1CCC[C@@H](O)C1)c1cccc(N2CCC(O)CC2)n1 [Example 38]", "SCALE_UNIT": "%", "EXPERIMENTAL_VALUE": 98}
{"COMPOUND": "O=C(Nc1cc2sc(N3CCOCC3)nc2nc1N1CCCCC1)c1cnn2cccnc12 [Example 104, hydrochloride]", "SCALE_UNIT": "%", "EXPERIMENTAL_VALUE": 95}
{"COMPOUND": "Cn1cc(-c2nc(C(=O)Nc3cc4sc(N5CCOCC5)nc4nc3N3CCCCC3)co2)cc(F)c1=O [Example 13]", "SCALE_UNIT": "%", "EXPERIMENTAL_VALUE": 98}
{"COMPOUND": "NC1CCCN(c2ccn3ncc(C(=O)Nc4cc5sc(N6CCOCC6)nc5nc4C4CC4)c3n2)C1 (centres unmarked) [Example 21]", "SCALE_UNIT": "%", "EXPERIMENTAL_VALUE": 97}

Data origin, for the record: patent US20180208605A1
